Assay: Novel Modifiers of Survival Motor Neuron (SMN) Protein: Gene Identification via Genome-wide siRNA Screen;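 also: luminescence tracks full-length SMN protein made from the SMN2 reporter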
Conditions: HEK293T SMN2-luciferase reporter, siRNA knockdown, 72 h; actives lie on both sides
About 1,400 (4.5%) of roughly 31,000 sequences were called active. Only a selection was taken, and actives are over-represented in it overall.
We label by threshold. Values of median seed-adjusted z-score strictly beneath -0.5 are Criterion met. Values of -0.5 and up are Criterion not met.

The following sequences have reported results that may help.
residue_string: CCCUCAGACUGUACGCAGATT against PGM5
label: Criterion not met

residue_string: CGCCGACUCUAUUCAUGCATT against RAB22A
label: Criterion not met

residue_string: GGAUCACCAACAAUCGCAATT against PDE6A
label: Criterion not met

## Input Is median seed-adjusted z-score of GGAAGGAUAUUACACCUAUTT against MMP24 strictly below -0.5?
## Output Criterion met

## Input Now give it for CAACCUUCCUCGGACUAAUTT against SLC26A2 too.
## Output Criterion met

## Input Now give it for UCUUCUAAAUACUUCCUAATT against GJC3 too.
## Output Criterion not met

## Input Now give it for GGAUGAUGUGAACUACAAATT against PTDSS1 too.
## Output Criterion met

## Input Now give it for CCACCUUUGCAACGCGGAATT against TPSD1 too.
## Output Criterion not met

## Input Now give it for CAUGGACCCUGAUGACAUATT against UROD too.
## Output Criterion not met

## Input Now give it for AUACUACGUUGAUUACAAATT against LRRTM1 too.
## Output Criterion met

## Input Now give it for ACCUGGUGGUGUCAACUCATT against PTOV1 too.
## Output Criterion not met

## Input Now give it for GGAUGAGGUCUUCACCAAATT against NENF too.
## Output Criterion met

## Input Now give it for CCGGUCAACUGUUACGUAUTT against GJA5 too.
## Output Criterion not met
